Biological target: Gal(b1-6)Gal
Assay: glycan array binding signal (z-score within array); higher = stronger binding
Conditions: glycan notation: IUPAC condensed, linker removed
This is one part of a sample in which the strongest signals are shown more often than they occur.
In this section we review reported glycan array binding signal (z-score) values for a set of binders.
A bare number is all that is needed in reply.

// solved cases for glycan array binding signal (z-score) follow
{"binder": "AMA (Arum maculatun) (protein) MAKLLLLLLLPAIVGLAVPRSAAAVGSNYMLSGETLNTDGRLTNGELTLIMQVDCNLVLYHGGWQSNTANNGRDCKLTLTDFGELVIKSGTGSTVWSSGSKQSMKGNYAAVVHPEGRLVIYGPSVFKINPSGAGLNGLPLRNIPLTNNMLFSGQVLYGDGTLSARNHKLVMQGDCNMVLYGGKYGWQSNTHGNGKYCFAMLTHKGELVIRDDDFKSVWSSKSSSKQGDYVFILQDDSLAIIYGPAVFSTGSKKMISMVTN", "number": -0.208}
{"binder": "Clec18A (Homo sapiens) (protein) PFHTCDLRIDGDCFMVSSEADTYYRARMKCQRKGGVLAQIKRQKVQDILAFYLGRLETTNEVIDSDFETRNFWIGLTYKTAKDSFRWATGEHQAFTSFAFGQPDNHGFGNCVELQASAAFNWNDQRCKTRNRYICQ", "number": 3}

Task: May I ask what glycan array binding signal (z-score) has been recorded for Erv46-EDTA (Saccharomyces cerevisiae), P39727 (protein) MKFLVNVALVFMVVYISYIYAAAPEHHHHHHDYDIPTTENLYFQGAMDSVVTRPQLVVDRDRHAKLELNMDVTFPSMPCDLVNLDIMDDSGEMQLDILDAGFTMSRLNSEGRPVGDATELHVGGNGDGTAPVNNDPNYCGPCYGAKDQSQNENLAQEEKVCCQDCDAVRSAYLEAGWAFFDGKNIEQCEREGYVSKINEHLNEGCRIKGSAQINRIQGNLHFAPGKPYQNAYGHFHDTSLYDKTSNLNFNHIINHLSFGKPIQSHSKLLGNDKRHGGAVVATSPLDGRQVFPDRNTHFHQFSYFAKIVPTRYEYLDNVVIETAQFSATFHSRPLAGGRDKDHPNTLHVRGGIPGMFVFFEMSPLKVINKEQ ?
Output: -0.241

Data provenance is the supplement of paper PMC8728848.
